Where do the numbers come from? From patent US9688669B2.

Target: human mGluR5A (Homo sapiens (Human))
Sequence (P41594 other isoform, or with tags, fused parts or gaps): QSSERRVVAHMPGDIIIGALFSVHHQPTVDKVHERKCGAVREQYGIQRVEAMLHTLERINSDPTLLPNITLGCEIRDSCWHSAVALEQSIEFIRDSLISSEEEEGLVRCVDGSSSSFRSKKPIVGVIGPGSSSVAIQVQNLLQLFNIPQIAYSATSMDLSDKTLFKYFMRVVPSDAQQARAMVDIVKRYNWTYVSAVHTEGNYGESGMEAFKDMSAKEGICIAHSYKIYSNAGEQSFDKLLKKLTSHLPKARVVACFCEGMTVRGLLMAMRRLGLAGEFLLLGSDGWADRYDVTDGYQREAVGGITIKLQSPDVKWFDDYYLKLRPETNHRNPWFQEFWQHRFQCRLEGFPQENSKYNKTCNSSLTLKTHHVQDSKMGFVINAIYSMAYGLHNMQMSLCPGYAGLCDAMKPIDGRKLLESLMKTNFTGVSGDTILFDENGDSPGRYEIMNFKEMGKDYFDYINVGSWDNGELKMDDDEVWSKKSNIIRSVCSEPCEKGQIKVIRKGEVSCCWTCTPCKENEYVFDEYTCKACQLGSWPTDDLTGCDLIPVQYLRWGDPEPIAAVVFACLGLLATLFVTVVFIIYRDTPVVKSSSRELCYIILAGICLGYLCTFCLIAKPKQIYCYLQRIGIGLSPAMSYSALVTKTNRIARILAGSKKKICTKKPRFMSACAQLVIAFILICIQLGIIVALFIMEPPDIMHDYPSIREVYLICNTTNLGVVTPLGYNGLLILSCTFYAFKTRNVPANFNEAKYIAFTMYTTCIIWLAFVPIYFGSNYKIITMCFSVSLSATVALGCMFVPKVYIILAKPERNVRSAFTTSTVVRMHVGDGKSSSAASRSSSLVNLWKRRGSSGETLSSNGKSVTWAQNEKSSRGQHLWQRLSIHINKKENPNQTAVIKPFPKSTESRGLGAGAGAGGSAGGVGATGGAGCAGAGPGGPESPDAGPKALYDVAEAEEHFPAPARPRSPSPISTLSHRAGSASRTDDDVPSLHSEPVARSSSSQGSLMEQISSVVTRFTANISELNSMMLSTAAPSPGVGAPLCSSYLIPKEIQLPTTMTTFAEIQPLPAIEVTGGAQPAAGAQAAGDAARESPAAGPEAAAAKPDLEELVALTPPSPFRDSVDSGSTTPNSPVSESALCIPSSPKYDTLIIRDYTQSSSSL
Experiment: mGluR5 FLIPR Assay
Conditions: positive modulator activity, HEK293 (ZF) cells with human mGluR5A and rat GLAST, Ca++ response to ~EC10 l-glutamate
pEC50: −log10 of the molar value.
Mark label 1 for reported pEC50 of 7 or greater; mark label 0 for anything smaller.

These recorded examples may help you get a feel for the data.
{"Compound": "CCC(C)(O)C#Cc1cncc([C@H]2NC(=O)O[C@@H]2c2cccc(F)c2)c1 (stereo partly shown) [Example 16]", "Discrete Label": "label 0"}
{"Compound": "CCCC(O)C#Cc1cncc([C@H]2NC(=O)O[C@@H]2c2cccc(F)c2)c1 (single isomer, unassigned) [Example 22]", "Discrete Label": "label 1"}
{"Compound": "O=C1N[C@H](c2cncc(C#CC3(O)CCCC3)c2)[C@@H](c2cccc(F)c2)O1 [Example 39]", "Discrete Label": "label 0"}

Has CN(C)CC#Cc1cncc([C@H]2NC(=O)O[C@@H]2c2cccc(F)c2)c1 [Example 79] a recorded pEC50 greater than or equal to 7? label 0

Has O=C1N[C@H](c2cncc(C#CC34CCC(CC3)CC4)c2)[C@@H](c2cc(F)ccc2F)O1 [Example 82] a recorded pEC50 greater than or equal to 7? label 0

====

Target: human mGluR5A (Homo sapiens (Human))
Experiment: mGluR5 FLIPR Assay
Details: positive modulator activity, HEK293 (ZF) cells with human mGluR5A and rat GLAST, Ca++ response to ~EC10 l-glutamate
pEC50: −log10 of the molar value.
Readout Label: pEC50

Some compounds with known pEC50 results, for comparison:
{"Compound": "CC(C)C#Cc1cncc([C@H]2NC(=O)O[C@@H]2c2cccc(F)c2)c1", "pEC50": "< 5.49"}
{"Compound": "CC1(C)CC1C(O)C#Cc1cncc([C@H]2NC(=O)O[C@@H]2c2cccc(F)c2)c1 (stereo partly drawn)", "pEC50": "< 5.79"}
{"Compound": "CC1(C#Cc2cncc([C@H]3NC(=O)O[C@@H]3c3cccc(F)c3)c2)CCCCC1", "pEC50": "< 4.97"}
{"Compound": "O=C1N[C@H](c2ccnc(C#CC3CC(F)(F)C3)c2)[C@@H](c2ccccc2)O1", "pEC50": "< 5.49"}
{"Compound": "O=C1N[C@H](c2cncc(C#CCn3ncc4ccccc43)c2)[C@@H](c2cccc(F)c2)O1", "pEC50": "< 5.79"}

Would you kindly look at the next entry?
Test system human mGluR5A (Homo sapiens (Human)); read-out pEC50; what value for O=C1N[C@H](c2cncc(C#CCC3CCO3)c2)[C@@H](c2cccc(F)c2)O1 (stereo partly drawn) ? < 5.79
